Tested on: SR
protocol_description: NCI tumour cell line growth inhibition, 48 h
Active and inactive are the calls of the source. Cut-off read from the data, not from the text of the source: active = GI50 up to about 1.1 µM and inactive = higher.
This listing pairs molecules with measured GI50.

Worked examples follow.
# molecule, GI50
records = [
    ("Cc1ccc(S(=O)(=O)NC(CCC(=O)NN)C(=O)NN)cc1 (centres undefined)", "> 100 µM (inactive)"),
    ("O=C(O)CN1C(=O)c2ccc(NC(=O)C(=O)O)cc2S1(=O)=O", "> 100 µM (inactive)"),
    ("CC(C)(C)[Si](C)(C)OCC1OC(n2ccc(=O)[nH]c2=O)C(O[Si](C)(C)C(C)(C)C)[C@]12O[C@@H]2CO (some centres undefined)", "3.61 µM (inactive)"),
    ("CN1C(=O)C2(c3ccccc31)C1CC3C(CO1)C1C2C3(CO)CN1C#N (centres undefined)", "> 100 µM (inactive)"),
    ("COC(=O)[C@@H]1[C@H](OC(C)=O)CCC2[C@@]3(C[C@@H](c4ccoc4)O[C@@H]3OC)[C@H](C)CC[C@]21C(=O)OC (some centres undefined)", "> 25 µM (inactive)"),
    ("O=C1COc2cc3c(cc2N1)SCCC(=O)N3", "> 100 µM (inactive)"),
    ("CCOC(=O)C(NC(=O)c1cccc(Cl)c1)(Nc1ccc(S(=O)(=O)Nc2cc(C)nc(C)n2)cc1)C(F)(F)F (centres undefined)", "68.7 µM (inactive)"),
    ("C[N+](C)(CCO)CCN1c2ccccc2Sc2ccccc21", "> 10 µM (inactive)"),
]

Proceed to the following item.
Given item COc1ccc(/C(Cl)=C(\C=O)c2ccc([N+](=O)[O-])cc2)cc1OC , the value recorded as its GI50 is 3.03 µM (inactive)

----------
Tested on: HCT-116
protocol_description: NCI tumour cell line growth inhibition, 48 h
Active and inactive are the calls of the source. Cut-off read from the data, not from the text of the source: active = GI50 up to about 1.1 µM and inactive = higher.
measurement_label: GI50

Worked examples follow.
# molecule, GI50
records = [
    ("C/C=C(/C)C(=O)O[C@@H]1CCN2CC[C@H](COC(=O)/C(=C/C)CO)C12 (stereo not given in full)", "48.8 µM (inactive)"),
    ("O=NN(CCCl)C(=O)Nc1ccc(Cl)c(Cl)c1", "> 100 µM (inactive)"),
]

Given item COc1ccc(NC(=O)CC(=O)n2nc(-c3ccccc3)c(/N=N/c3ccccc3C(=O)O)c2-c2ccccc2)cc1 , the value recorded as its GI50 is > 100 µM (inactive)

Given item CS(=O)(=O)OCC1OC(n2ccc(NC(=O)c3ccccc3)nc2=O)CC1OS(C)(=O)=O (stereo not given) , the value recorded as its GI50 is > 100 µM (inactive)

Given item CSC(=S)c1ccc(C(=S)SC)cc1 , the value recorded as its GI50 is > 100 µM (inactive)

----------
Test system: SK-MEL-2
protocol_description: NCI tumour cell line growth inhibition, 48 h
Calls of active or inactive are those of the source. Rule as the data show it: active = GI50 up to about 1.1 µM and inactive = higher. Where a SMILES comes first, the peptide text is derived from it. The star is where a group is joined. Boc = CC(C)(C)OC(=O)*
This listing pairs compounds with measured GI50.

# compound, GI50
data = [
    ("Cc1nc2ccccc2n1CCc1nc2ccccc2s1", "86.9 µM (inactive)"),
    ("O=C(Nc1ccc(Br)cc1)c1c(-c2ccccc2)c2ccc(O)cc2oc1=O", "> 10 µM (inactive)"),
    ("O=c1cc(N2CCN(c3cc(=O)n4ccccc4n3)CC2)oc2ccccc12", "> 100 µM (inactive)"),
    ("CCO[C@H]1C[C@@H](c2ccccc2)[C@]2(C)C[C@H](C(=O)OC)ON2O1", "> 100 µM (inactive)"),
    ("Clc1ccc(C2SCc3nc4ccccc4n32)cc1 (centres undefined)", "16 µM (inactive)"),
    ("N#Cc1c(NN)nc(NN)c(C#N)c1-c1ccccc1", "> 100 µM (inactive)"),
    ("CCc1cccc(C)c1NC(=O)CCc1nnc2s/c(=C\\c3cccc4ccccc34)c(=O)n12", "> 100 µM (inactive)"),
    ("COC(=O)[C@@H]1[C@H](OC(C)=O)CCC2[C@@]3(C[C@@H](c4ccoc4)O[C@@H]3OC)[C@H](C)CC[C@]21C(=O)OC (some centres undefined)", "> 25 µM (inactive)"),
]

Given item Cc1cc(NCCCCCCCCCC[n+]2c(C)cc(N)c3ccccc32)c2ccccc2n1 , the value recorded as its GI50 is 1.87 µM (inactive)

Given item COC(=O)C1(C)CCc2c(OC)ccc(OC)c2C1=O (centres undefined) , the value recorded as its GI50 is > 100 µM (inactive)

Given item CC(C)(C)[Si](C)(C)OCCCC#CCO , the value recorded as its GI50 is > 100 µM (inactive)

Given item CC(C)(C)OC(=O)NC(Cc1ccc(O)cc1)C(=O)N1CCCC1C(=O)O (stereo not drawn) (Boc-Tyr-Pro-OH; configuration not given here) , the value recorded as its GI50 is > 100 µM (inactive)

Given item CCOC(=O)C12C(C(=O)OC)=C(C)N(NC(=O)Nc3ccccc3)C1(N)N(NC(=O)Nc1ccccc1)C(C)=C2C(=O)OC (centres undefined) , the value recorded as its GI50 is 19.9 µM (inactive)

Given item CNc1ccc(C(=O)CC(O)CCC(C)C2OC(=O)CC(O)CC(=O)CC(O)CC(O)CC(O)CC(O)CC3(O)CC(O)C(C(=O)NCCN(C)C)C(CC(OC4OC(C)C(O)C(NC(=O)CN5CCN(C)CC5)C4O)\C=C/C=C\C=C/C=C/C=C/C=C\C=C/C2C)O3)cc1 (centres undefined) , the value recorded as its GI50 is 6.22 µM (inactive)

Given item Cc1c(C)c(S(=O)(=O)N(CCCCCN)OCCCN)c(C)c2c1OC(C)(C)CC2 , the value recorded as its GI50 is 4.75 µM (inactive)

Given item CC(C#N)c1cn(S(=O)(=O)c2ccccc2)c2ccccc12 (centres undefined) , the value recorded as its GI50 is 37.1 µM (inactive)

From: ChEMBL document CHEMBL1201862
